Biological target: CypD (Homo sapiens)
Sequence (P30405 45-207): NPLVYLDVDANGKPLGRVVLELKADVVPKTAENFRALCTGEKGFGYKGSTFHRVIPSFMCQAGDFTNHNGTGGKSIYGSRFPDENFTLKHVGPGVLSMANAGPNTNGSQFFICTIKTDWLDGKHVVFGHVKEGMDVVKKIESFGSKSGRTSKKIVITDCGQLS
Experiment: Chymotrypsin coupled prolyl-isomerase assay
experimental_readout: IC50

Solved cases below.
1. NCCOCCNC(=O)C1CCNC(=O)Cc2ccccc2CNC(=O)C(Cc2ccco2)NC(=O)C2CCCN(C2)C(=O)C=CC(=O)N1 (stereo not drawn) [JOMFc] :: > 100 µM
2. NCCOCCNC(=O)C1CNC(=O)C=CC(=O)N2CCCC(C2)C(=O)NC(Cc2ccco2)C(=O)NCc2ccccc2CC(=O)N1 (stereo not drawn) [JOMAt] :: > 100 µM

Okay, next one:
Data request, read-out IC50, for NCCOCCNC(=O)C1CCNC(=O)C=CC(=O)N2CCCC(C2)C(=O)NC(Cc2ccco2)C(=O)NCc2ccccc2CC(=O)N1 (stereo not drawn) [JOMBc]
> 100 µM

====

Molecular target: CypC (Homo sapiens)
Construct: PPIC (UniProtKB Entry P45877: residues 24–212); host or cells: E. coli BL21(DE3)
Sequence (P45877 24-212): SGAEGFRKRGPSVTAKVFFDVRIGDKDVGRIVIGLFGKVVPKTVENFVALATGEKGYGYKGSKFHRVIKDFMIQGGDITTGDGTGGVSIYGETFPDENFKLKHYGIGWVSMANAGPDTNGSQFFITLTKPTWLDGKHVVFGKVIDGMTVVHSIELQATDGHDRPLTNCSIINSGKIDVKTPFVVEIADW
Assay: Chymotrypsin coupled prolyl-isomerase assay
Format: biochemical
Conditions: wild-type CypC; read-out: Wild-Type Cyclophilin Prolyl Isomerase Inhibition IC50 Values, CypC
experimental_readout: IC50

Solved cases below.
1. C[N+]1=C(C=CC=CC=C2N(CCCCCC(=O)NCCNC(=O)C3CCNC(=O)C=CC(=O)N4CCCC(Cc5ccccc5)(C4)C(=O)NC(Cc4ccc(-c5ccc(CC(C(=O)O)C(=O)O)cc5)cc4)C(=O)NCc4ccccc4CC(=O)N3)c3ccccc3C2(C)C)C(C)(C)c2ccccc21 (stereo not drawn) [*B52-Cy5] :: > 10 µM
2. NCCOCCNC(=O)[C@@H]1CCNC(=O)/C=C/C(=O)N2CCC[C@](Cc3ccccc3)(C2)C(=O)N[C@@H](Cc2ccc(-c3ccc(C(CC(=O)O)CC(=O)O)cc3)cc2)C(=O)NCc2ccccc2CC(=O)N1 :: > 50 µM

Okay, next one:
Data request, read-out IC50, for NCCOCCNC(=O)[C@@H]1CCNC(=O)/C=C/C(=O)N2CCC[C@](Cc3ccccc3)(C2)C(=O)N[C@@H](Cc2ccc(-c3ccc(CC(C(=O)O)C(=O)O)cc3)cc2)C(=O)NCc2ccccc2CC(=O)N1
> 100 µM

====

Molecular target: NKTR (Homo sapiens)
Construct: NKTR (UniProtKB Entry P30414: residues 7–179); host or cells: E. coli BL21(DE3)
Sequence (P30414 7-179): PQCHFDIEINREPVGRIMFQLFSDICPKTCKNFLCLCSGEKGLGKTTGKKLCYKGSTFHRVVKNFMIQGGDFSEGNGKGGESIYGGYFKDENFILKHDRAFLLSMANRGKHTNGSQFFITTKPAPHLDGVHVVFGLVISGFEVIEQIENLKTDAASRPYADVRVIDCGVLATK
Experiment: Chymotrypsin coupled prolyl-isomerase assay
Assay type: biochemical
Conditions: wild-type NKTR; read-out: Wild-Type Cyclophilin Prolyl Isomerase Inhibition IC50 Values, NKTR
pIC50: −log10 of the molar value.
experimental_readout: pIC50

1) NCCOCCNC(=O)[C@@H]1CCNC(=O)/C=C/C(=O)N2CCC[C@](Cc3ccccc3)(C2)C(=O)N[C@@H](Cc2ccc(C(=O)c3ccccc3)cc2)C(=O)NCc2ccccc2CC(=O)N1 :: < 4.00
2) C[N+]1=C(C=CC=CC=C2N(CCCCCC(=O)NCCNC(=O)C3CCNC(=O)C=CC(=O)N4CCCC(Cc5ccccc5)(C4)C(=O)NC(Cc4ccc(-c5ccc(C(CC(=O)O)CC(=O)O)cc5)cc4)C(=O)NCc4ccccc4CC(=O)N3)c3ccccc3C2(C)C)C(C)(C)c2ccccc21 (stereo not drawn) [*B53-Cy5] :: < 5.00

Okay, next one:
Data request, read-out pIC50, for NCCOCCNC(=O)[C@@H]1CCNC(=O)/C=C/C(=O)N2CCC[C@](Cc3ccccc3)(C2)C(=O)N[C@@H](Cc2ccc(-c3ccc(CC(=O)O)cc3)cc2)C(=O)NCc2ccccc2CC(=O)N1
< 4.00

Values compiled from paper PMC9596378.
